The values you see were collected from ChEMBL document CHEMBL1154113.

Species: Homo sapiens
assay protocol: Selectivity index, ratio of Ki for human recombinant CB2 receptor to Ki for human recombinant CB1 receptor
measurement kind: Ratio Ki

# get_value(readout='Ratio Ki', item= Cc1c(C(=O)NCCc2ccc(Cl)cc2Cl)nn(-c2ccc(Cl)cc2Cl)c1-n1cccc1 )
> 18.1

# get_value(readout='Ratio Ki', item= Cc1c(C(=O)NCc2ccc(Cl)cc2)nn(-c2ccc(F)cc2F)c1-n1c(C)ccc1C )
> 70.4

# get_value(readout='Ratio Ki', item= Cc1c(C(=O)NCCc2ccc(Cl)cc2)nn(-c2ccc(Cl)c(Cl)c2)c1-n1c(C)ccc1C )
> 10.1

# get_value(readout='Ratio Ki', item= Cc1c(C(=O)NCCc2ccc(Cl)c(Cl)c2)nn(-c2ccc(Cl)cc2Cl)c1-n1c(C)ccc1C )
> 33.4

# get_value(readout='Ratio Ki', item= COc1ccc(CCNC(=O)c2nn(-c3ccc(F)cc3F)c(-n3c(C)ccc3C)c2C)cc1Cl )
> 39.8
